Where do these numbers come from? They come from patent US10919943B2.

tested on: HAB1; assay: Yeast two hybrid of pBD-PYR1 site saturation mutants with pACT-HAB1 on 10 μM ABA, β-galactosidase staining; type: cell-based, Arabidopsis; design: key: x: Mutations in PYR1 that disrupt ABA-induced binding to PYR1 to HAB1; settings: S. cerevisiae Y190, 10 μM ABA; dead = lack of visible staining in comparison to wild type control
MEASURED ATTRIBUTE: Mutations in PYR1 that disrupt ABA-induced binding to PYR1 to HAB1

- R116P: PYR1 mutant (protein, UniProt O49686 1-191, looked up, variant R116P) Abscisic acid receptor PYR1: MPSELTPEERSELKNSIAEFHTYQLDPGSCSSLHAQRIHAPPELVWSIVRRFDKPQTYKHFIKSCSVEQNFEMRVGCTRDVIVISGLPANTSTERLDILDDERRVTGFSIIGGEHPLTNYKSVTTVHRFEKENRIWTVVLESYVVDMPEGNSEDDTRMFADTVVKLNLQKLATVAEAMARNSGDGSGSQVT: x
- L87G: PYR1 mutant (protein, UniProt O49686 1-191, looked up, variant L87G) Abscisic acid receptor PYR1: MPSELTPEERSELKNSIAEFHTYQLDPGSCSSLHAQRIHAPPELVWSIVRRFDKPQTYKHFIKSCSVEQNFEMRVGCTRDVIVISGGPANTSTERLDILDDERRVTGFSIIGGEHRLTNYKSVTTVHRFEKENRIWTVVLESYVVDMPEGNSEDDTRMFADTVVKLNLQKLATVAEAMARNSGDGSGSQVT: x
- L87Y: PYR1 mutant (protein, UniProt O49686 1-191, looked up, variant L87Y) Abscisic acid receptor PYR1: MPSELTPEERSELKNSIAEFHTYQLDPGSCSSLHAQRIHAPPELVWSIVRRFDKPQTYKHFIKSCSVEQNFEMRVGCTRDVIVISGYPANTSTERLDILDDERRVTGFSIIGGEHRLTNYKSVTTVHRFEKENRIWTVVLESYVVDMPEGNSEDDTRMFADTVVKLNLQKLATVAEAMARNSGDGSGSQVT: x
- T156M: PYR1 mutant (protein, UniProt O49686 1-191, looked up, variant T156M) Abscisic acid receptor PYR1: MPSELTPEERSELKNSIAEFHTYQLDPGSCSSLHAQRIHAPPELVWSIVRRFDKPQTYKHFIKSCSVEQNFEMRVGCTRDVIVISGLPANTSTERLDILDDERRVTGFSIIGGEHRLTNYKSVTTVHRFEKENRIWTVVLESYVVDMPEGNSEDDMRMFADTVVKLNLQKLATVAEAMARNSGDGSGSQVT: x
- G86T: PYR1 mutant (protein, UniProt O49686 1-191, looked up, variant G86T) Abscisic acid receptor PYR1: MPSELTPEERSELKNSIAEFHTYQLDPGSCSSLHAQRIHAPPELVWSIVRRFDKPQTYKHFIKSCSVEQNFEMRVGCTRDVIVISTLPANTSTERLDILDDERRVTGFSIIGGEHRLTNYKSVTTVHRFEKENRIWTVVLESYVVDMPEGNSEDDTRMFADTVVKLNLQKLATVAEAMARNSGDGSGSQVT: x
- A89D: PYR1 mutant (protein, UniProt O49686 1-191, looked up, variant A89D) Abscisic acid receptor PYR1: MPSELTPEERSELKNSIAEFHTYQLDPGSCSSLHAQRIHAPPELVWSIVRRFDKPQTYKHFIKSCSVEQNFEMRVGCTRDVIVISGLPDNTSTERLDILDDERRVTGFSIIGGEHRLTNYKSVTTVHRFEKENRIWTVVLESYVVDMPEGNSEDDTRMFADTVVKLNLQKLATVAEAMARNSGDGSGSQVT: x
- D155Y: PYR1 mutant (protein, UniProt O49686 1-191, looked up, variant D155Y) Abscisic acid receptor PYR1: MPSELTPEERSELKNSIAEFHTYQLDPGSCSSLHAQRIHAPPELVWSIVRRFDKPQTYKHFIKSCSVEQNFEMRVGCTRDVIVISGLPANTSTERLDILDDERRVTGFSIIGGEHRLTNYKSVTTVHRFEKENRIWTVVLESYVVDMPEGNSEDYTRMFADTVVKLNLQKLATVAEAMARNSGDGSGSQVT: x
- N151I: PYR1 mutant (protein, UniProt O49686 1-191, looked up, variant N151I) Abscisic acid receptor PYR1: MPSELTPEERSELKNSIAEFHTYQLDPGSCSSLHAQRIHAPPELVWSIVRRFDKPQTYKHFIKSCSVEQNFEMRVGCTRDVIVISGLPANTSTERLDILDDERRVTGFSIIGGEHRLTNYKSVTTVHRFEKENRIWTVVLESYVVDMPEGISEDDTRMFADTVVKLNLQKLATVAEAMARNSGDGSGSQVT: x

Q: Requested read-out: Mutations in PYR1 that disrupt ABA-induced binding to PYR1 to HAB1. Entry: S85M: PYR1 mutant (protein, UniProt O49686 1-191, looked up, variant S85M) Abscisic acid receptor PYR1: MPSELTPEERSELKNSIAEFHTYQLDPGSCSSLHAQRIHAPPELVWSIVRRFDKPQTYKHFIKSCSVEQNFEMRVGCTRDVIVIMGLPANTSTERLDILDDERRVTGFSIIGGEHRLTNYKSVTTVHRFEKENRIWTVVLESYVVDMPEGNSEDDTRMFADTVVKLNLQKLATVAEAMARNSGDGSGSQVT
Result: x

Q: Now the molecule F159P: PYR1 mutant (protein, UniProt O49686 1-191, looked up, variant F159P) Abscisic acid receptor PYR1: MPSELTPEERSELKNSIAEFHTYQLDPGSCSSLHAQRIHAPPELVWSIVRRFDKPQTYKHFIKSCSVEQNFEMRVGCTRDVIVISGLPANTSTERLDILDDERRVTGFSIIGGEHRLTNYKSVTTVHRFEKENRIWTVVLESYVVDMPEGNSEDDTRMPADTVVKLNLQKLATVAEAMARNSGDGSGSQVT
Result: x

Q: Now the molecule L87R: PYR1 mutant (protein, UniProt O49686 1-191, looked up, variant L87R) Abscisic acid receptor PYR1: MPSELTPEERSELKNSIAEFHTYQLDPGSCSSLHAQRIHAPPELVWSIVRRFDKPQTYKHFIKSCSVEQNFEMRVGCTRDVIVISGRPANTSTERLDILDDERRVTGFSIIGGEHRLTNYKSVTTVHRFEKENRIWTVVLESYVVDMPEGNSEDDTRMFADTVVKLNLQKLATVAEAMARNSGDGSGSQVT
Result: x
